tested.on: human GLP-1 receptor (human, UniProt P43220 24-463)
assay.protocol: cell-based or functional assay
*1 amine or outer side, *2 acyl side, *3 side chain or, on linkers, in order; H or OH if unused. Where no end group is shown, it is not given here. Side-chain parts run from the residue outwards. [ ]: non-standard residue; d: D form. The star is where a group is joined. Decanoyl(10-(4-HOOC-PhO)) = O=C(O)c1ccc(OCCCCCCCCCC(=O)*)cc1; αMePhe(2-F) = C[C@](N)(Cc1ccccc1F)C(=O)O; γGlu = O=C(O)[C@H](CCC(=O)[*:2])N[*:1]; C14 diacid = O=C(O)CCCCCCCCCCCCC(=O)*; αMeY = C[C@](N)(Cc1ccc(O)cc1)C(=O)O; αMeL = CC(C)C[C@](C)(N)C(=O)O; Orn = NCCC[C@H](N)C(=O)O; AEEA = NCCOCCOCC(=O)O; Aib = CC(C)(N)C(=O)O
assay.endpoint: cAMP EC50 (1.0% HSA) (nM)
Your answer is read as nM, so omit the unit and give the number.

[
  {
    "binder": "YXEGTXTSDXSIXLDXKAQXXFIXXLIKGGPSSGAPPPS (Y-Aib-EGT-αMeF(2F)-TSD-4Pal-SI-αMeL-LD-Orn-K((2-[2-(2-Amino-ethoxy)-ethoxy]-acetyl)2-(γ-Glu)-CO-(CH2)10-CH3)AQ-Aib-Orn-FI-(D-Glu)-αMeY-LIK((2-[2-(2-Amino-ethoxy)-ethoxy]-acetyl)2-(γ-Glu)-CO-(CH2)10-CH3)GGPSSGAPPPS-NH2) [Example 299]",
    "unit": "nM",
    "cAMP EC50 (1.0% HSA)": 2.58
  },
  {
    "binder": "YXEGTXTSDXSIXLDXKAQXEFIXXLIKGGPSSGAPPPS (Y-Aib-EGT-αMeF(2F)-TSD-hTyr-SI-αMeL-LD-Orn-K((2-[2-(2-Amino-ethoxy)-ethoxy]-acetyl)2-(γ-Glu)-(10-(4-carboxyphenoxy)decanoyl))AQ-Aib-EFI-(D-Glu)-αMeY-LIK((2-[2-(2-Amino-ethoxy)-ethoxy]-acetyl)2-(γ-Glu)-(10-(4-carboxyphenoxy)decanoyl))GGPSSGAPPPS-NH2) [Example 327]",
    "unit": "nM",
    "cAMP EC50 (1.0% HSA)": 13.6
  },
  {
    "binder": "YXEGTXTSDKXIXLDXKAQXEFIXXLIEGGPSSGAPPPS (Y-Aib-EGT-αMeF(2F)-TSDK((2-[2-(2-Amino-ethoxy)-ethoxy]-acetyl)2-(γ-Glu)-CO-(CH2)10-CH3)-Aib-I-αMeL-LD-Orn-K((2-[2-(2-Amino-ethoxy)-ethoxy]-acetyl)2-(γ-Glu)-CO-(CH2)10-CH3)AQ-Aib-EFI-(D-Glu)-αMeY-LIEGGPSSGAPPPS-NH2) [Example 292]",
    "unit": "nM",
    "cAMP EC50 (1.0% HSA)": 4.35
  }
]

Please give the measured cAMP EC50 (1.0% HSA) for this binder: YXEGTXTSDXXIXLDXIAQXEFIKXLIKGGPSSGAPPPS (Y-Aib-EGT-αMeF(2F)-TSD-4Pal-Aib-I-αMeL-LD-Orn-IAQ-Aib-EFIK((2-[2-(2-Amino-ethoxy)-ethoxy]-acetyl)3-(γ-Glu)-CO-(CH2)12-CO2H)-αMeY-LIK((2-[2-(2-Amino-ethoxy)-ethoxy]-acetyl)3-(γ-Glu)-CO-(CH2)12-CO2H)GGPSSGAPPPS-NH2) [Example 342]
13.6

# cAMP EC50 (1.0% HSA) lookup, item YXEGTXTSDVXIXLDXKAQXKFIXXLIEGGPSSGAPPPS (Y-Aib-EGT-αMeF(2F)-TSDV-Aib-I-αMeL-LD-Orn-K((2-[2-(2-Amino-ethoxy)-ethoxy]-acetyl)2-(γ-Glu)-(10-(4-carboxyphenoxy)decanoyl))AQ-Aib-K((2-[2-(2-Amino-ethoxy)-ethoxy]-acetyl)2-(γ-Glu)-(10-(4-carboxyphenoxy)decanoyl))FI-(D-Glu)-αMeY-LIEGGPSSGAPPPS-NH2) [Example 319]
28.1

Please look up its cAMP EC50 (1.0% HSA): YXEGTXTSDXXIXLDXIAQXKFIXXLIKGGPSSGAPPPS (Y-Aib-EGT-αMeF(2F)-TSD-4Pal-Aib-I-αMeL-LD-Orn-IAQ-Aib-K((2-[2-(2-Amino-ethoxy)-ethoxy]-acetyl)-(γ-Glu)-CO-(CH2)12-CO2H)FI-(D-Glu)-αMeY-LIK((2-[2-(2-Amino-ethoxy)-ethoxy]-acetyl)-(γ-Glu)-CO-(CH2)12-CO2H)GGPSSGAPPPS-NH2) [Example 340]
122

Need cAMP EC50 (1.0% HSA) of Y[Aib]EGT[αMePhe(2-F)]TSDV[Aib]I[αMeL]LD[Orn]IAQ[Aib]EFIK([AEEA-AEEA-γGlu-C14 diacid])[αMeY]LIK([AEEA-AEEA-γGlu-C14 diacid])GGPSSGAPPPS-NH2 [Example 304] , thanks.
64.2

What does the data say about its cAMP EC50 (1.0% HSA)? Entry: Y[Aib]EGT[αMePhe(2-F)]TSDV[Aib]I[αMeL]LD[Orn]IAQ[Aib]EFIK([AEEA-AEEA-AEEA-γGlu-Decanoyl(10-(4-HOOC-PhO))])[αMeY]LIK([AEEA-AEEA-AEEA-γGlu-Decanoyl(10-(4-HOOC-PhO))])GGPSSGAPPPS-NH2 [Example 347]
51.7
